- Assay system: c-Src SH2
- Procedure details: SH2 binding enrichment of the phosphorylated peptide, bacterial display (enrichment ratio); higher = better substrate or ligand; peptides without Tyr show the background
Result type: SH2 binding enrichment

[Q] Name the recorded SH2 binding enrichment of the item SVIKEYQIRQV [USH2A_Y3623_G3618S] in your answer.
[A] 0.472

[Q] Determine its reported SH2 binding enrichment: RLYARYFQGDL [PDK3_Y337]
[A] 0.549

[Q] Recall and state the measured SH2 binding enrichment for GDKENYGLPQP [BUB1_Y538_N534D] .
[A] 0.518

[Q] Could you please provide reported SH2 binding enrichment for DEEPPYRGPFC [SASH1_Y551] ? Thanks!
[A] 0.657

[Q] Identify measured SH2 binding enrichment corresponding to DSILVYQGKEQ [USH2A_Y1909]
[A] 0.493

a = RMLRKYQELMS [KRT74_Y425_E424K]
b = GIVKAYFVHAR [AIPL1_Y267_R270H_YF]
[Q] Which entry shows the lesser value of SH2 binding enrichment here, a or b ? Write down the label attached to your selection.
[A] a

P = ESMNIYLQTSP [NAT1_Y208_T207I]
Q = SVVVPYEPPGV [TP53_Y220_E224G]
[Q] # return whichever of P and Q has the smaller SH2 binding enrichment # reply format: chosen label
[A] P

----------
- Assay system: MERTK (UniProt Q12866)
- Sequence (Q12866 whole entry, looked up): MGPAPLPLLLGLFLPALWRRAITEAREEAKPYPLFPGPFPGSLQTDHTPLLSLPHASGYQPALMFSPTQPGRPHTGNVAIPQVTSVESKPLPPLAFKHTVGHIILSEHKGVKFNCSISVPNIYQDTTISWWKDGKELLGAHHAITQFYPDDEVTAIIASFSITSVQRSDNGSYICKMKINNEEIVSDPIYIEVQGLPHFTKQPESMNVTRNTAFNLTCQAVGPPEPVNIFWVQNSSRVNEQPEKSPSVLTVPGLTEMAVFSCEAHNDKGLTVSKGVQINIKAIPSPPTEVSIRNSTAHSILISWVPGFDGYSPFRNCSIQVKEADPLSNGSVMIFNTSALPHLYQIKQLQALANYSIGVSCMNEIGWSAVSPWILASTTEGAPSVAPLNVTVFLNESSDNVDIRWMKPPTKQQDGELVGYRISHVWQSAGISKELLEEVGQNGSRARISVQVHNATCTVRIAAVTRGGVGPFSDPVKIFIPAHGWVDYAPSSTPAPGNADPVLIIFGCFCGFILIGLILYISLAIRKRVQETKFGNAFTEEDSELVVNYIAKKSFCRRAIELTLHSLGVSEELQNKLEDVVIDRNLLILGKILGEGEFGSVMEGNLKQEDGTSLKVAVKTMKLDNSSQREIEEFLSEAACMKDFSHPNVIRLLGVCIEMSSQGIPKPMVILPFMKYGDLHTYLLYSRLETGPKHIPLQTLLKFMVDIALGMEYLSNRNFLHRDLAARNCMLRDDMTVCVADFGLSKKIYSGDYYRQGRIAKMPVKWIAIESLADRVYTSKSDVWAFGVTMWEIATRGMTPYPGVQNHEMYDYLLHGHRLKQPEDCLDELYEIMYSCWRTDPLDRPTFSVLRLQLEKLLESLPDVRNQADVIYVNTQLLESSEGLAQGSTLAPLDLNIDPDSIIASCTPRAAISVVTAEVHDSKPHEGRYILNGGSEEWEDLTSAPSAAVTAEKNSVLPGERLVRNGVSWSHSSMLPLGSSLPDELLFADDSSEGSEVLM
- Procedure details: phosphorylation enrichment, bacterial display (enrichment ratio); higher = better substrate or ligand; peptides without Tyr show the background
Result type: phosphorylation enrichment
Kindly provide the number alone.

Below, each entry is followed by its recorded phosphorylation enrichment result.
[Q] Return reported phosphorylation enrichment for target or system MERTK (UniProt Q12866), item NAGDYYDLYGG [PTPN11_Y63_T59A] .
[A] 3.96

[Q] Answer with phosphorylation enrichment of KRIETYFSKNF [PLP1_Y50_L46R_YF] measured for MERTK (UniProt Q12866).
[A] 0.395

[Q] # return phosphorylation enrichment for LPEVSYVKAID [GLRA1_Y307_K304E] , test system: MERTK (UniProt Q12866)
[A] 0.07

[Q] State, for MERTK (UniProt Q12866), measured phosphorylation enrichment of the sequence listed here: YRQLPYCPSVE [CTNND2_Y508_Q507P]
[A] 0.728

[Q] State the measured phosphorylation enrichment (MERTK (UniProt Q12866)) of TPIYPYLLPKS [PLD2_Y580_T577I]
[A] 1.8

Further cases:
[Q] Given KKLAEYGPQGR [CLCA1_Y147] , report its phosphorylation enrichment on MERTK (UniProt Q12866).
[A] 0.379

[Q] // fetch phosphorylation enrichment; item: MKGDYYRSLAE [YWHAG_Y131_Y133S] ; system: MERTK (UniProt Q12866)
[A] 0.44

[Q] Under MERTK (UniProt Q12866), report phosphorylation enrichment for VSSSDYFSFVL [USP24_Y2138_Y2134S]
[A] 4.39

[Q] Specify the recorded phosphorylation enrichment for KDKLPYLYDDP [GPX2_Y125_P126L] , system: MERTK (UniProt Q12866).
[A] 0.461

[Q] Param request: phosphorylation enrichment | system MERTK (UniProt Q12866) | item FSKDIYKRVTG [PANK2_Y405_N404I_YF]
[A] 0.334

[Q] Name the value of phosphorylation enrichment reported for QEGPEYWDQNT [HLA-A_Y83_E87N] when tested on MERTK (UniProt Q12866).
[A] 0.625

[Q] Output reported phosphorylation enrichment of the sequence FSQQTYFRVSN [ABCD1_Y180_YF] on MERTK (UniProt Q12866).
[A] 0.41

[Q] Specify phosphorylation enrichment for LATINYPFEKG [NDUFS8_Y84_P79L] , system MERTK (UniProt Q12866).
[A] 0.377

----------
- Assay system: Fes (UniProt P07332)
- Sequence (P07332 whole entry, looked up): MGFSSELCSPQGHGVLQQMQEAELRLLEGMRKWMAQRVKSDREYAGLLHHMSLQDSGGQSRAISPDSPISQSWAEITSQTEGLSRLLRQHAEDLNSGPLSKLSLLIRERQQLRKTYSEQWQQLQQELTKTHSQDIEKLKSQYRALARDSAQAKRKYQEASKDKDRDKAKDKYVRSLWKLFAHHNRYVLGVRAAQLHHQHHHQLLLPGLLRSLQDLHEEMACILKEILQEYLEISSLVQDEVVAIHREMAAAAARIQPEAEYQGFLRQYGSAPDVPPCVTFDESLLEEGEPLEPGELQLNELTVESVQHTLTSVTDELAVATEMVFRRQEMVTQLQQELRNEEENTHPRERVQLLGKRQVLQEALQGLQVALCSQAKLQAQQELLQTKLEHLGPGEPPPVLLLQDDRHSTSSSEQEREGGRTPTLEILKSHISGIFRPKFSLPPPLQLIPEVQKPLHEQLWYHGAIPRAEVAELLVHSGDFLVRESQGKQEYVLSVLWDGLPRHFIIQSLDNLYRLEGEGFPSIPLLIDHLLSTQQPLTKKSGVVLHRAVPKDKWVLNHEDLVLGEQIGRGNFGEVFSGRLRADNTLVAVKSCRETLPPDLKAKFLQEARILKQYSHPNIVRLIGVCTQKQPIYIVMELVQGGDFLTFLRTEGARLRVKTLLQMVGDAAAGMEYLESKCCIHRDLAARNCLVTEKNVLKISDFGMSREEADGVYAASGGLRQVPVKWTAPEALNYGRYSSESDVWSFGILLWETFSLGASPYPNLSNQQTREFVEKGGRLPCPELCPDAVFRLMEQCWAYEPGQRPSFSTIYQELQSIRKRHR
- Procedure details: phosphorylation enrichment, bacterial display (enrichment ratio); higher = better substrate or ligand; peptides without Tyr show the background
Result type: phosphorylation enrichment
// return a plain number; no unit text

Field: example entries. Status: answers known.
[Q] Give the value of phosphorylation enrichment reported for the following: IEDNKYTAREG [HCK_Y411_E410K]
[A] 1.03

[Q] Look up and state reported phosphorylation enrichment for KNRDVSSSDFF [USP24_Y2134_Y2134S_YF]
[A] 0.71

***
[Q] Give me measured phosphorylation enrichment, please, for this sequence: KGSLPYNLILD [PKD1L2_Y406]
[A] 0.713

[Q] Check the records and state phosphorylation enrichment for GEDEPYSEPYA [APBA1_Y183]
[A] 1.19

[Q] Please give the documented phosphorylation enrichment of IGKAGYTDKVV [ENO1_Y236]
[A] 0.642

[Q] Quote phosphorylation enrichment reported for QNAGDYFDLFG [PTPN11_Y62_T59A_YF] please.
[A] 1.57

[Q] Please indicate phosphorylation enrichment recorded for EFKKHYGFSLF [ANXA3_Y295_YF]
[A] 1.01

[Q] Provide only the value of recorded phosphorylation enrichment for KVDKEYEVRVR [GHR_Y226]
[A] 0.864

----------
- Assay system: SHP2-C SH2
- Procedure details: SH2 binding enrichment of the phosphorylated peptide, bacterial display (enrichment ratio); higher = better substrate or ligand; peptides without Tyr show the background
Result type: SH2 binding enrichment

[Q] Report SH2 binding enrichment under test system SHP2-C SH2 for GQETSYIEDNC [PAH_Y24] .
[A] 0.559

P = ADRLEYSRTGL [MMUT_Y287_G284R]
Q = SVVVPYEPPGV [TP53_Y220_E224G]
R = GIVKAYFVHAR [AIPL1_Y267_R270H_YF]
[Q] Endpoint returns the given sequences ordered by ascending SH2 binding enrichment. Thanks in advance for listing the labels in the requested order.
[A] Q, P, R
(Q: 0.781, P: 1.14, R: 1.71)

I = FRGFSYDDIPD [TMEM230_Y112_YF]
II = TRSFKYLLLSM [NF1_Y491_YF]
[Q] Hi there! Just curious which has the higher SH2 binding enrichment between I and II . Return value: the label identifying the chosen record.
[A] II

----------
Measured phosphorylation enrichment, listed per entry.
- Assay system: Fyn (UniProt P06241)
- Sequence (P06241 whole entry, looked up): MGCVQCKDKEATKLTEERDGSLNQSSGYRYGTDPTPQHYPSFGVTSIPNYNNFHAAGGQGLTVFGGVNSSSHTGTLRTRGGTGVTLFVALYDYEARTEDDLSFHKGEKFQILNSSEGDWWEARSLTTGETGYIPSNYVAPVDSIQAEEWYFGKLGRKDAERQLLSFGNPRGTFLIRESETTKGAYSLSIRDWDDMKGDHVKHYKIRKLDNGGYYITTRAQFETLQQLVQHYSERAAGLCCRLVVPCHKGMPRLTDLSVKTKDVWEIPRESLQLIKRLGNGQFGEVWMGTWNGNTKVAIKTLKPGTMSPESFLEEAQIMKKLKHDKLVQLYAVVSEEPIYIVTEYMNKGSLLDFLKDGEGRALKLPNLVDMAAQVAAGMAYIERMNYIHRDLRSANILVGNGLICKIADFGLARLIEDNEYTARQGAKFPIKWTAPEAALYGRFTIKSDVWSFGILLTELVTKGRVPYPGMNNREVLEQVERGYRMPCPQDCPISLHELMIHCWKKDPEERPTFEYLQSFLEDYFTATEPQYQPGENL
- Procedure details: phosphorylation enrichment, bacterial display (enrichment ratio); higher = better substrate or ligand; peptides without Tyr show the background
Lab note: jot the number down without any unit.

[Q] Under Fyn (UniProt P06241): report phosphorylation enrichment of LGQRIYQFIRS [DYRK1B_Y271_Q275R_YF] .
[A] 1.86

[Q] Param request: phosphorylation enrichment | system Fyn (UniProt P06241) | item SIKDKYVTAFY [KCNH2_Y611_L615F]
[A] 0.428

[Q] Recall the reported phosphorylation enrichment of LEIETDRRLLD [KRT12_Y429_Y429D] when tested on Fyn (UniProt P06241).
[A] 1.29

Others:
[Q] Write phosphorylation enrichment of HGDSAYHSQRH [ERBB3_Y1132_R1127H] ; system used: Fyn (UniProt P06241)
[A] 0.327

[Q] Look up Fyn (UniProt P06241) data: phosphorylation enrichment of QSHKVYVQHLL [POR_Y604] , then report it.
[A] 0.908

[Q] Report value only: phosphorylation enrichment, Fyn (UniProt P06241), AFEQQYSPIPK [NOX1_Y373_R378K]
[A] 0.514

[Q] Please look at FASTGYVIAIQ [GRIN2B_Y762_G763V] and tell me its recorded phosphorylation enrichment on Fyn (UniProt P06241).
[A] 0.474

[Q] Enter phosphorylation enrichment (test system Fyn (UniProt P06241)) for AKLDIYKRKVE [VWA3B_Y918_N916D]
[A] 0.485

[Q] System Fyn (UniProt P06241). Read-out phosphorylation enrichment. Item ALAHKYQGGGG [HBB_Y146_H147Q] . Report value.
[A] 0.451

[Q] Report value only: phosphorylation enrichment, Fyn (UniProt P06241), VKPENYWRLDI [VHL_Y175_R176W]
[A] 0.381

----------
- Assay system: MERTK (UniProt Q12866)
- Procedure details: phosphorylation enrichment, bacterial display (enrichment ratio); higher = better substrate or ligand; peptides without Tyr show the background
Result type: phosphorylation enrichment
Please reply with the value in numeric form only.

Known results for sequences:
[Q] Identify measured phosphorylation enrichment associated with DGLALYTGSAL [COL6A3_Y524_S521L]
[A] 0.55

[Q] For PTEAQYRFIFM [PTPN11_Y511_Q506P_YF] , write its phosphorylation enrichment.
[A] 0.702

[Q] Indicate its recorded phosphorylation enrichment; the sequence in question is RIVEIYSRSLQ [GCH1_Y175_R178S]
[A] 1.17

[Q] Look up phosphorylation enrichment of NFATLHLKIFH [PDE6B_Y219_Y219H_YF] and report it.
[A] 0.56

[Q] Answer with the recorded phosphorylation enrichment for the sequence listed here: IVEYAYNDKAV [PUM3_Y259_I264V]
[A] 0.5

More entries:
[Q] // Input: IHSGIYYKPES [L2HGDH_Y102] . Output its phosphorylation enrichment only.
[A] 11.7

[Q] For the sequence VEKGSYSALRA [ABCC2_Y845_L849R] , report phosphorylation enrichment.
[A] 0.325

[Q] Please give the documented phosphorylation enrichment of DRLASNLDKVR [KRT10_Y160_Y160N]
[A] 0.394

[Q] Consider the sequence KGNMYYENSYA [EGFR_Y113_R108K] . State its measured phosphorylation enrichment.
[A] 1.17

[Q] Consider the sequence EKKKFYDTKIE [CASP5_Y104_YF] and give its recorded phosphorylation enrichment.
[A] 0.428
